# credit: the supplement of paper PMC10126150

- Test system: ATP;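 also: ATP exposure 15 min at 22 °C before imaging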
- assay.protocol: switch fluorescence ratio, 500 uM ATP over buffer (Cy3 cluster intensity, sum of 5 cycles each) (fold (ratio)); higher = stronger signal-on switching upon ATP binding; sequences stand for … in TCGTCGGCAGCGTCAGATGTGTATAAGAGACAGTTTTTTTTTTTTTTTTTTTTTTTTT…TC
- condition.parameters: aptamer strand: ATP DNA aptamer (quencher-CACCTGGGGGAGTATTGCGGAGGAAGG + anchor), 100 nM annealed; ATP concentration: 500 uM
Known switch fluorescence ratio of a selection of sequences
Respond with the number and no other words.

Below, each entry is followed by its recorded switch fluorescence ratio result.
item.sequence | test.value
GAAATCAGGT | 1.02
AAGTGAATAT | 1.01
TTCGTGGGGA | 0.995
TAAAGGGATT | 0.994

Q: Given GGGCTTTGGG , state its recorded switch fluorescence ratio.
A: 1.01

Q: Do the same for TTATGGTCTG please
A: 0.984

Q: Next entry: CCGGTTTGGG
A: 0.988

Q: How about this sequence: ATTTGGTGCG
A: 1.01

Q: Repeat for the following sequence: AGGGCATTCT
A: 0.984

Q: Next up: AGCAGAGGGT
A: 0.994

Q: Try this sequence next: TTTCTGTTGG
A: 0.992

Q: Proceed to TTTGTGAATT
A: 0.972

Q: Next sequence up: GCAGAAGGTA
A: 1.01

Q: Also CCTAACAGGA ?
A: 1.01

Q: Next entry: TAAACGGGGA
A: 0.986

Q: Also, GAATAAGGTA please.
A: 0.993

Q: Okay, and TCCTGATGGC ?
A: 0.985

Q: What do we get for GGGGTAAGTG ?
A: 0.987

Q: Input TGGTGTACTT
A: 1.01

Q: Also check AATATTTTAT
A: 1.01

###

- System: ATP;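 also: ATP exposure 15 min at 22 °C before imaging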
- assay.protocol: switch fluorescence ratio, 500 uM ATP over buffer (Cy3 cluster intensity, sum of 5 cycles each) (fold (ratio)); higher = stronger signal-on switching upon ATP binding; sequences stand for … in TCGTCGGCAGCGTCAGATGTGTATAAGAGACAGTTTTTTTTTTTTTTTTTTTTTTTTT…TC
- condition.parameters: aptamer strand: ATP DNA aptamer (quencher-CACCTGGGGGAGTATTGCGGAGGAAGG + anchor), 100 nM annealed; ATP concentration: 500 uM
switch fluorescence ratio values by entry
Please reply with the value in numeric form only.

item.sequence | test.value
GGTGGTTATT | 0.996
GTTCAGGGGA | 1.27
CCTTCAGAGG | 1.12
TTCGGAGGGA | 2.2

Q: Given the sequence CTGAGCGATT , what is its reported switch fluorescence ratio?
A: 1.41

Q: Please do the same for GATAGGGTGC as well.
A: 1.14

Q: Also TGTGATGGGC , if possible.
A: 0.989

Q: Repeat for the following sequence: ATTGGCATCT
A: 0.993

Q: Try this sequence next: TTTCCGCTTA
A: 3.67

Q: Entry to check: AACTTGGACC
A: 1.05

Q: Would you kindly repeat that for GCCCGTTTCG ?
A: 0.999

Q: Query AAGGATTTTT next
A: 0.998

Q: Continue with GTTAGAAATG
A: 1.01

Q: Do the same for TGCGTGTTTT please
A: 1.03

Q: Now the sequence TTATCTCTGG
A: 0.978

Q: Again, but for GATTGATAGG
A: 1

Q: Entry to check: TCAGGTATGT
A: 1.01

Q: Subsequent entry: GTTGTGATGT
A: 1
